target.system: Torsin-1A (Homo sapiens) (UniProt O14656)
Sequence (O14656 whole entry, looked up): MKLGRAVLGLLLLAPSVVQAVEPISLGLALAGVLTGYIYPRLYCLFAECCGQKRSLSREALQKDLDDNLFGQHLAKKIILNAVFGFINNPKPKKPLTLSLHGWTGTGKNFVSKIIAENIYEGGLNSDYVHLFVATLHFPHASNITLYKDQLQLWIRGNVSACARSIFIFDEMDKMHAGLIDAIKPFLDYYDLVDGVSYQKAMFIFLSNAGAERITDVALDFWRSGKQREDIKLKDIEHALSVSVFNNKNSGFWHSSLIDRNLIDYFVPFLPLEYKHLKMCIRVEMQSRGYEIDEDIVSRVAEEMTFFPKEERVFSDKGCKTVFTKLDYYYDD
assay: torsin A mutant lysate binding on microarrays – cell lysate, small-molecule microarray, COS7 lysate, 635/667 nm fluorescence, primary screen (AID 1150);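 note: score pools 667 nm emission and signal to noise measuring lysate protein binding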
conditions.used: COS7 hTOR1A mutant lysate, 635 nm fluorescence, higher = more signal
composite z-score of 0.3 or higher: Y. Under 0.3: N.

Identify whether the reported composite z-score of the following molecule is 0.3 or greater: CC(C)OC(=O)C1=CCC(c2cccc(Cl)c2)O1 (centres undefined)
N

Check if composite z-score >= 0.3 (inclusive). Item: C/C=C/[C@H](CCn1cc([C@H](O)c2ccccc2)nn1)[Si](C)(C)c1ccc(OC)cc1
N

###

Would you kindly list composite z-score for each of these molecules?
target.system: Focal adhesion kinase 1 (Homo sapiens) (UniProt Q05397)
Sequence (Q05397 whole entry, looked up): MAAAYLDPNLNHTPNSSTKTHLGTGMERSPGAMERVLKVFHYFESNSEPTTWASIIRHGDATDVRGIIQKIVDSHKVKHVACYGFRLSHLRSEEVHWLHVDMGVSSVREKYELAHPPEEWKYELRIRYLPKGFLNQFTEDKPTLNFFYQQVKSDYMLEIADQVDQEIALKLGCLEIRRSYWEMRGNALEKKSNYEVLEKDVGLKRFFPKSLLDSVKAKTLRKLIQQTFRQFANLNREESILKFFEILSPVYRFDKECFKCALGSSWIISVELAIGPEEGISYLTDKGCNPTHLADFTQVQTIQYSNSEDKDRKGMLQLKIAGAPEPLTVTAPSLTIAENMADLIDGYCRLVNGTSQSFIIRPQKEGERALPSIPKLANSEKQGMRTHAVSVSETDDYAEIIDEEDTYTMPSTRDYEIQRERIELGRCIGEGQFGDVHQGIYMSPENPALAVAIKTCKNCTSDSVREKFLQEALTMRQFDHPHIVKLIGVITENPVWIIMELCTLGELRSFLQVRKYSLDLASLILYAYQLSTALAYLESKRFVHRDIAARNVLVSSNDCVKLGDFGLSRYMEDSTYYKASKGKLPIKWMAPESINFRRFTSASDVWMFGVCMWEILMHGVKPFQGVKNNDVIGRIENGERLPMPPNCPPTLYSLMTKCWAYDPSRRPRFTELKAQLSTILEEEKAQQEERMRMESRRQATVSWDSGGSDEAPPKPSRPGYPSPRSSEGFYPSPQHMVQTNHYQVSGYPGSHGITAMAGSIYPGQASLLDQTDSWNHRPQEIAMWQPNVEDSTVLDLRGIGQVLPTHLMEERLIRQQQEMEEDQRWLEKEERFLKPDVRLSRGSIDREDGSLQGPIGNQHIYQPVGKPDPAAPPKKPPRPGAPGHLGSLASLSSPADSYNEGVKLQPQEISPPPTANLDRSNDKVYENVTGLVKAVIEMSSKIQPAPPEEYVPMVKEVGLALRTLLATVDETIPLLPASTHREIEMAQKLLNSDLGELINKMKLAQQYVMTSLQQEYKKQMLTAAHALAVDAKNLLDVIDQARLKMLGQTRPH
assay: PTK2 protein binding on printed compound slides – biochemical, small-molecule microarray, 635/667 nm fluorescence, BSA, DTT, primary screen (AID 1130);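 note: composite of spot emission at 667 nm and signal to noise over triplicate slides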
conditions.used: 635 nm fluorescence, higher = more signal
Numbers only.

For orientation, consider the following solved cases.
molecule: CC(C)(C)OC(=O)CC[C@@]1(C(=O)N2CCOCC2)N=C(c2ccc(OCCCO)cc2)O[C@@H]1c1ccccc1N=[N+]=[N-]
composite z-score: 0.288

molecule: CCCNC(=O)[C@@]1(C)c2ccccc2C(=O)N(Cc2cc(F)cc(C(F)(F)F)c2)[C@H]1c1ccc(CO)cc1
composite z-score: -0.527

molecule: C=C(C(=O)CC[C@@H](OC(=O)c1cccnc1)c1ccc(CO)o1)C(C)C
composite z-score: 0.113

molecule: COCCOC(=O)N1C(=O)[C@@]2(c3cc(C#Cc4ccc(OC)cc4)ccc31)[C@H](C(N)=O)[C@H]1C(=O)O[C@H](c3ccccc3)[C@H](c3ccccc3)N1[C@@H]2c1ccc(O)cc1
composite z-score: -0.582

Please state composite z-score for every molecule in the list that follows.
1. CCOC(=O)N1C(c2ccc(OCCCO)cc2)=NC(C(=O)OC)N1C(=O)OCC (configuration not stated)
2. COc1ccc(CCNC(=O)[C@@]2(C)c3ccccc3C(=O)N(Cc3ccccc3)[C@H]2c2ccc(CO)cc2)cc1
3. CN(C)CCCCNC(=O)[C@@H]1C[C@@H]2C(=O)N[C@@H](CCCCN)C(=O)N2[C@@H]1c1cccc(OCCO)c1

[0.454, 0.652, -0.815]

###

assay: S6 kinase pathway phospho-S6 level changes – cell-based, A549, cytoblot, luminescence, serum-stimulated, primary screen (AID 1158);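 note: serum-stimulated A549 lung adenocarcinoma cells; signal is phosphorylated S6 detected by cytoblot immunostaining with HRP secondary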
conditions.used: 5 h, higher = more signal
Record Met whenever z-score is at 0.4 or higher; record Not met when lower.

# example entries with known answers
compound: COC(=O)[C@@]1(Cc2ccccc2)[C@H]2c3cc(C(=O)N(C)C)n(Cc4ccccc4)c3C[C@H]2CN1C(=O)c1ccccc1
label.value: Not met
//
compound: COc1ccc([Si](C)(C)[C@@H]2[C@@H](CCn3cc([C@H](O)c4ccccc4)nn3)O[C@]3(C(=O)N(C)c4ccccc43)[C@H]2C)cc1
label.value: Met
//
compound: C=C[C@H](C)[C@H](O)c1ccc(OCCO)cc1
label.value: Not met
//
compound: CCCC[C@H]1C[C@@H]1[C@@H]1N(P(=O)(c2ccccc2)c2ccccc2)[C@](CO)(c2ccccc2)CC12CC2
label.value: Not met
//
compound: COCCOC(=O)N1C(=O)[C@@]2(c3cc(C#CCCO)ccc31)[C@H](C(=O)NC[C@H](O)c1ccccc1)[C@H]1C(=O)O[C@H](c3ccccc3)[C@H](c3ccccc3)N1[C@@H]2c1ccc(OCCO)cc1
label.value: Met

Check if z-score >= 0.4 (inclusive). Item: COCC1C2CC[C@H]3C(OCc4ccc(F)cc4C(F)(F)F)OC[C@]4(C)[C@H]3C2=C(CN4C(=O)OC(C)(C)C)[C@H](C)C1COC (some centres undefined)
Met

Say whether CN1C(=O)C2C=CC(C(O)C(c3ccccc3)c3ccccc3)N(Nc3ccccc3)C2C1=O (centres undefined) shows z-score of 0.4 or more.
Not met

Form field: z-score at least 0.4? Entry: O=C1C2C=CC(C(O)c3ccc(B(O)O)cc3)N(Nc3ccc([N+](=O)[O-])cc3)C2C(=O)N1c1ccccc1 (centres undefined)
Not met
